- System: HepG2 cells
- run description: HepG2 cytotoxicity assay
- experimental conditions: HepG2 cytotoxicity listed with the Pb ODA data set (this manuscript)
Measured Pb ODA (this manuscript) HepG2 cytoxicity determines class: low = under 20 µM, mid = from 20 µM up to 70 µM, high = 70 µM and over

Example entries begin here.
State the band of CC1CN(Cc2cccc(C#N)c2)CCN1c1ccc(NC(=O)c2cccs2)cc1.O=C(O)C(F)(F)F (centres unmarked) low

State the band of `Cc1[nH]c(C)c([N+](=O)[O-])c(=O)c1-c1ccc(Oc2ccc(OC(F)(F)F)cc2)cc1` high

State the band of `O=C(Nc1ccc(OC2CCN(Cc3ccc(F)cc3)CC2)c(Cl)c1)c1cccs1.O=C(O)C(F)(F)F` mid

State the band of `Cc1[nH]c(C)c(-c2ccc(C#Cc3ccc(F)cc3F)cc2)c(=O)c1Br` high

State the band of `Cc1nc(/N=C(\N)NC(=O)NC2CCCCC2)nc2ccccc12` mid

State the band of `CCCCCCCc1c(C)nc2c(OC)cccc2c1O` high

State the band of `Cc1[nH]c(C)c(-c2ccc(-c3ccc(OC(F)(F)F)cc3)cc2)c(=O)c1Br` low

State the band of `COc1ccc2ncc(F)c(CCN3CCC(NCc4cc(C)c5c(c4)OCCO5)CC3)c2n1.Cl` mid

State the band of `COc1ccc2ncc(F)c(CCN3CCC(NCc4cc(Br)c5c(c4)OCCO5)CC3)c2n1.Cl` low

State the band of `COc1ccc(NC2=C(c3ccccc3)C(=O)c3ccccc32)cn1` high

# next compound below
State the band of `O=C(NC1CCN(CC2(c3ccccc3F)CCCC2)CC1)c1ccn[nH]1` mid

----------
- System: P. berghei ookinete development
- experimental conditions: primary screen at 1 μM, replicate B
property label: % inhibition, Replicate B (%)
// note: answer is a bare numeric in %

Consider the worked cases shown below.
Entry `CC(Cl)=CCc1c(C)[nH]c2c(ccc3ccccc32)c1=O` — recorded % inhibition, Replicate B = 96.24

Entry `CCOc1ccc(-c2nonc2NC(=O)c2cccc(Cl)c2)cc1OCC` — recorded % inhibition, Replicate B = 54.18

Entry `N#Cc1ccc(Cn2ccc3c4c(N)nc(N)nc4ccc32)cc1` — recorded % inhibition, Replicate B = 49.47

Entry `Cc1cc(Nc2cccc(C#N)c2)nc(Nc2ccccc2C)n1` — recorded % inhibition, Replicate B = 36.05

Entry Cc1ccnc(NC(c2cccc(Cl)c2Cl)c2ccc3cccnc3c2O)c1 (stereo not drawn) — recorded % inhibition, Replicate B = 53.18

Entry `Cc1[nH]c(C)c(-c2ccc(Nc3ccc(C(F)(F)F)cn3)cc2)c(=O)c1Br` — recorded % inhibition, Replicate B = 90.38

Entry CCCCCCNC(=O)C1Cc2c([nH]c3ccc(Br)cc23)C2(CCN(CCc3ccccc3)CC2)N1 (stereo not drawn) — recorded % inhibition, Replicate B = 59.10

Entry `CCC(CC)n1cc2c(ccc3nc(N)nc(N)c32)n1` — recorded % inhibition, Replicate B = 62.28

Consider now this further compound.
Entry `CC1(C)CC(NCCCCCCCOc2ccc(OCc3ccccc3)cc2)CC(C)(C)N1.Cl` — recorded % inhibition, Replicate B = 10.57

----------
- Test system: HepG2 cells
- run description: HepG2 cytotoxicity assay
- experimental conditions: HepG2 cytotoxicity unified across the three screens
property label: Unified cytotox (µM)
// note: answer is a bare numeric in µM

Entry `Cc1n[nH]c2ccc(-c3ccc4nccc(N5CCC(N)CC5)c4c3)cc12.Cl` — recorded Unified cytotox = 9.27

Entry `COc1cc(NCCCNCc2cn(Cc3cc(Br)cc(Br)c3)c3ccccc23)nc2ccccc12` — recorded Unified cytotox = 5.03

Entry CC(C)(C)c1ccc(CN2CCC(CNC(=O)c3cc(-c4ccccc4F)cs3)C2)cc1.O=C(O)C(F)(F)F (centres unmarked) — recorded Unified cytotox = 8.35

Entry `CNCCNc1nccc(N2CCc3ncnc(Nc4ccc(OCc5cccc(F)c5)c(Cl)c4)c3C2)n1` — recorded Unified cytotox = 6.39

Entry `CCCCCCCCN1CCN(CCCCCCNc2c3ccccc3nc3ccccc23)CC1.Cl` — recorded Unified cytotox = 3.23

Others:
Entry CC(Cc1ccc(OCCCCOc2ccccc2)cc1)NCCC1CCCN1C (centres unmarked) — recorded Unified cytotox = 1.12

Entry `CC1(C)CC(NCCCCCCCOc2ccc(OCc3ccccc3)cc2)CC(C)(C)N1.Cl` — recorded Unified cytotox = 2.88

Entry `COc1cc2nc(N3CCN(c4nc(N)c5cc(OC)c(OC)cc5n4)CC3)nc(N)c2cc1OC` — recorded Unified cytotox = 52.49

Reference source for all entries: paper PMC6753678
